Test system: KRas G12C mutant
Assay: Ras GTP Binding Domain Inhibition Assay (Ras Superfamily Assay)
Conditions: 20 μM compound, with SOS
Text: Biological Example 3: Ras GTP Binding Domain Inhibition Assay The assays described in Example 3 are collectively referred to as the “Ras Superfamily Assay” throughout this application. […] The small GTPases proteins: KRas wild type. KRas Q61H mutant, KRas G12C mutant, KRas G12D mutants, Rac-1, and Rho-A were expressed as His-tagged proteins. In addition, the Guanosine nucleotide Exchange Factor (GEF) Sos protein (residues 556-1049) was expressed as a His-tagged protein. […]
metric-name: KRas G12C mutant + SOS: % inh.

*Q* Endpoint output: KRas G12C mutant + SOS: % inh. of COc1cccc(-c2cn3nc(-c4nccn4C)nc(N[C@H]4C[C@H](OC)C4)c3c2-c2ccccc2)c1Cl . Value?
*A* 0 (0 = 0% inhibition)
